- TARGET OF ASSAY: HIS-TGFβR2 WT (Homo sapiens)
- TEST DETAILS: HTRF probe-displacement assay, HIS-TGFβR2 WT
- Format: binding
RESULT TYPE: IC50 (µM)

// solved cases for IC50 follow
molecule="CC(=O)Nc1cc(-c2[nH]c3c(C(O)C(F)F)ccnc3c2-c2cccc(C(F)F)n2)ccn1 (centres unmarked) [Example 148]" output_unit=µM measured_value=0.484
molecule="CC(=O)Nc1cc(-c2[nH]c3cccnc3c2-c2ccc3[nH]ccc3c2)ccn1 [Example 20]" output_unit=µM measured_value=1.69
molecule="C=Cc1ccnc2c(-c3cccc(C(F)F)n3)c(-c3ccnc(NC(C)=O)c3)[nH]c12 [Example 127]" output_unit=µM measured_value=6.65
molecule="COc1ccc(-c2c(-c3ccnc(NC(C)=O)c3)[nH]c3c(C(F)F)ccnc23)cn1 [Example 213]" output_unit=µM measured_value=0.118

A = CC(=O)Nc1cc(-c2[nH]c3c(C(O)C(C)C)ccnc3c2-c2cccc(C(F)F)n2)ccn1 (centres unmarked) [Example 144]
B = O=C(CNCCN1CCOCC1)Nc1cc(-c2[nH]c3cc(Cl)cnc3c2-c2ccc(F)cn2)ccn1 [Example 241]
Lab note: record which item had the higher IC50, A or B . Write the label of whichever entry you select.
B

###

- TARGET OF ASSAY: HIS-TGFβR2 WT (Homo sapiens, UniProt P37173)
- Sequence (P37173 23-567): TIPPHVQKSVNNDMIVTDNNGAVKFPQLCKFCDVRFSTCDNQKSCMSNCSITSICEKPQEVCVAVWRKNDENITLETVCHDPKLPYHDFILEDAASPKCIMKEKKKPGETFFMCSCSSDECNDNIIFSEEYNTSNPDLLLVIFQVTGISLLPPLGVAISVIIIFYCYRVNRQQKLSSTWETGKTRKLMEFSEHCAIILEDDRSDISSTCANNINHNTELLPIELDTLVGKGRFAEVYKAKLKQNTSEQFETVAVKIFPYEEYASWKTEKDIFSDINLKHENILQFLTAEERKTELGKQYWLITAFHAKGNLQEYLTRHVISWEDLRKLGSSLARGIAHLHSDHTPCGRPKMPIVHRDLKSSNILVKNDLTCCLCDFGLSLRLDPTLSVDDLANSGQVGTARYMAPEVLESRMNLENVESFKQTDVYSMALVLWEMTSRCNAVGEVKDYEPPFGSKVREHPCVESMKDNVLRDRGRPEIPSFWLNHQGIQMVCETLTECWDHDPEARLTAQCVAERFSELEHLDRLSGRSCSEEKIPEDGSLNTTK
- TEST DETAILS: HTRF probe-displacement assay, HIS-TGFβR2 WT
- Assay type: binding
RESULT TYPE: IC50 (µM)

Below, each entry is followed by its recorded IC50 result.
compound=CC(=O)Nc1cc(-c2[nH]c3c(CO)ccnc3c2-c2cccc(F)n2)ccn1 result_type=IC50 output_unit=µM measured_value=0.637
compound="CCC(O)c1ccnc2c(-c3ccc(OC)nc3)c(-c3ccnc(NC(C)=O)c3)[nH]c12 (centres unmarked)" result_type=IC50 output_unit=µM measured_value=0.031
compound=CC(=O)Nc1cc(-c2[nH]c3cc(F)cnc3c2-c2ncc(C)s2)ccn1 result_type=IC50 output_unit=µM measured_value=0.407

A = CC(=O)Nc1cc(-c2[nH]c3c(CO)ccnc3c2-c2ccc(F)nc2)ccn1
B = O=C(CN1CCOCC1)Nc1cc(-c2[nH]c3cc(Cl)cnc3c2-c2ccc(F)cn2)ccn1
Which of the two gives a bigger number for IC50: A or B ? Select an item and report its label.
B
(B: 2.6 µM, A: 0.01 µM)

###

- TARGET OF ASSAY: HIS-TGFβR2 WT (Homo sapiens)
- TEST DETAILS: HTRF probe-displacement assay, HIS-TGFβR2 WT
- Assay type: binding
RESULT TYPE: IC50 (µM)

Guide cases for IC50, answers given:
compound="COc1ccc(-c2c(-c3ccnc(NC(C)=O)c3)[nH]c3ccc(F)nc23)cn1 [Example 36]" output_unit=µM measured_value=0.06
compound="CC(=O)Nc1cc(-c2[nH]c3cccnc3c2-c2ccc(F)c(C)n2)ccn1 [Example 23]" output_unit=µM measured_value=0.68

I = CC(=O)Nc1cc(-c2[nH]c3c(C(F)F)ccnc3c2-c2nc(C)cs2)ccn1 [Example 222]
II = COc1ccc(-c2c(-c3ccnc(NC(C)=O)c3)[nH]c3c(CN)ccnc23)cn1 [Example 81]
Smaller IC50 value? Options are I and II // output: label of the selected item
I

###

- TARGET OF ASSAY: UniProt:P37173
- TEST DETAILS: HTRF probe-displacement assay, HIS-TGFβR2 WT
- Format: binding
RESULT TYPE: IC50 (µM)

Solved cases below.
smiles_code=CC(=O)N1CCN(CC(=O)Nc2cc(-c3[nH]c4cc(Cl)cnc4c3-c3ccc(F)cn3)ccn2)CC1 result_type=IC50 output_unit=µM measured_value=14.5
smiles_code=COc1ccc(-c2c(-c3ccnc(NC(C)=O)c3)[nH]c3c(C#N)ccnc23)cn1 result_type=IC50 output_unit=µM measured_value=0.083

1 = COc1cnc2c(-c3ccc(OC(F)F)cn3)c(-c3ccnc(NC(C)=O)c3)[nH]c2c1
2 = COc1ccnc2c(-c3nc(C(F)F)cs3)c(-c3ccnc(NC(C)=O)c3)[nH]c12
3 = CC(=O)Nc1cc(-c2[nH]c3cccnc3c2-c2cccc(Cl)n2)ccn1
Ordering criterion: IC50; begin with the maximum. Respond with the label ranking, as requested.
1, 2, 3
(1: 14.6 µM, 2: 7.55 µM, 3: 0.089 µM)

###

- TARGET OF ASSAY: HIS-TGFβR1 T204D (Homo sapiens, UniProt P36897, T204D)
- Sequence (P36897 34-503 T204D): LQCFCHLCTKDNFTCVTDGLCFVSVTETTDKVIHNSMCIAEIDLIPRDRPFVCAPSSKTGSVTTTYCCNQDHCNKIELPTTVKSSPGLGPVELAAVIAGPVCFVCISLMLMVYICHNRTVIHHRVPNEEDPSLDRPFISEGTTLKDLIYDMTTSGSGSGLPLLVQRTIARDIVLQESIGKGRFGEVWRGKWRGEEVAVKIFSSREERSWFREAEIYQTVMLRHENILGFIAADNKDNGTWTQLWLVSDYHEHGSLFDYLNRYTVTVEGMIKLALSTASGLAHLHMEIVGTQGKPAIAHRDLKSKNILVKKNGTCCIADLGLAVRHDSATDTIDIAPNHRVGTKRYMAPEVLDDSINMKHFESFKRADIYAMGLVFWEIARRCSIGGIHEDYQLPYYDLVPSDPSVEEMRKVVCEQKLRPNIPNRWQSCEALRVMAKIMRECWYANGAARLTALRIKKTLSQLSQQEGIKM
- TEST DETAILS: HTRF probe-displacement assay, HIS-TGFβR1 T204D
- Format: binding
- SETUP CONDITIONS: read-out: TGFβR1 (μM) IC50
RESULT TYPE: IC50 (µM)

compound="CC(=O)Nc1cc(-c2[nH]c3c(C(C)O)ccnc3c2-c2ccc(Cl)nc2)ccn1 (stereo not shown)" result_type=IC50 output_unit=µM measured_value=0.001

1 = COc1cnc2c(-c3ccc(OC(F)F)cn3)c(-c3ccnc(NC(C)=O)c3)[nH]c2c1
2 = COc1ccnc(-c2c(-c3ccnc(NC(C)=O)c3)[nH]c3cccnc23)c1
Returns: the argument ( 1 or 2 ) having the larger IC50. Could you answer with the label of the item you picked?
2
(2: 0.2 µM, 1: 0.003 µM)

1 = COc1cnc2c(-c3nc(C)ccc3F)c(-c3ccnc(NC(C)=O)c3)[nH]c2c1
2 = COc1ccc(-c2c(-c3ccnc(NC(C)=O)c3)[nH]c3cc(C(O)C(F)(F)C(N)=O)cnc23)nc1 (stereo not shown)
3 = CC(=O)Nc1cc(-c2[nH]c3c(CO)ccnc3c2-c2ccc(Cl)nc2)ccn1
4 = CC(=O)Nc1cc(-c2[nH]c3cc(Cl)cnc3c2-c2cccc(OC(C)C)n2)ccn1
5 = CC(=O)Nc1cc(-c2[nH]c3c(C4CCOCC4)ccnc3c2-c2cccc(C(F)F)n2)ccn1
Arrange these 5 compounds in increasing order of IC50. Give the order by naming the labels one after another as requested.
2, 1, 5, 3, 4

###

- TARGET OF ASSAY: HIS-TGFβR1 T204D (Homo sapiens, UniProt P36897, T204D)
- TEST DETAILS: HTRF probe-displacement assay, HIS-TGFβR1 T204D
- Format: binding
- SETUP CONDITIONS: read-out: TGFβR1 (μM) IC50
RESULT TYPE: IC50 (µM)

These recorded examples may help you get a feel for the data.
compound="CCCNCc1cnc2c(-c3ccc(OC)cn3)c(-c3ccnc(NC(C)=O)c3)[nH]c2c1 [Example 294]" result_type=IC50 output_unit=µM measured_value=0.063
compound="COc1ccc(-c2c(-c3ccnc(NC(C)=O)c3)[nH]c3c(C(C)O)ccnc23)cn1 (centres unmarked) [Example 230]" result_type=IC50 output_unit=µM measured_value=0.0024

A = COc1cnc2c(-c3csc(C)n3)c(-c3ccnc(NC(C)=O)c3)[nH]c2c1 [Example 210]
B = COc1ccc(-c2c(-c3ccnc(NC(=O)CN4CCN(CCO)CC4)c3)[nH]c3cc(Cl)cnc23)nc1 [Example 252]
Out of A and B , name the one with the higher IC50. Respond with the label that goes with your answer.
A
(A: 0.0025 µM, B: 0.001 µM)

###

- TARGET OF ASSAY: HIS-TGFβR2 WT (Homo sapiens)
- TEST DETAILS: HTRF probe-displacement assay, HIS-TGFβR2 WT
- Assay type: binding
RESULT TYPE: IC50 (µM)

For orientation, consider the following solved cases.
smiles_code=COc1ccc(-c2c(-c3ccnc(NC(C)=O)c3)[nH]c3cc(Cl)cnc23)cn1 result_type=IC50 output_unit=µM measured_value=0.068
smiles_code=COc1ccc(-c2c(-c3ccnc(NC(C)=O)c3)[nH]c3c(C(=O)NC(CO)CO)cc(Cl)nc23)cn1 result_type=IC50 output_unit=µM measured_value=9.23

a = CC(=O)Nc1cc(-c2[nH]c3cccnc3c2-c2ccc(C#N)nc2)ccn1
b = COc1ccc(-c2c(-c3ccnc(NC(=O)CN(C)C)c3)[nH]c3cc(OC)cnc23)nc1
c = CC(=O)Nc1cc(-c2[nH]c3cccnc3c2-c2cccc(F)n2)ccn1
Rank by IC50 (largest to smallest). Show the ranking through the labels, in the order asked for.
b, a, c

###

- TARGET OF ASSAY: HIS-TGFβR1 T204D (Homo sapiens, UniProt P36897, T204D)
- TEST DETAILS: HTRF probe-displacement assay, HIS-TGFβR1 T204D
- Type: binding
- SETUP CONDITIONS: read-out: TGFβR1 (μM) IC50
RESULT TYPE: IC50 (µM)

P = CC(=O)Nc1cc(-c2[nH]c3cc(Cl)cnc3c2-c2cccc(CO)n2)ccn1
Q = COc1ccc(-c2c(-c3ccnc(NC(=O)CN4CCOCC4)c3)[nH]c3cc(Cl)cnc23)nc1
R = CC(=O)Nc1cc(-c2[nH]c3c(CF)ccnc3c2-c2cccc(C(F)F)n2)ccn1
S = COc1ccc(-c2c(-c3ccnc(NC(C)=O)c3)[nH]c3cc(OC4COC4)cnc23)nc1
T = CC(=O)Nc1cc(-c2[nH]c3cccnc3c2-c2cc(C)ccn2)ccn1
Sort the listed entries by IC50, smallest first. List labels; respect the requested ordering.
R, S, Q, T, P
(R: 0.001 µM, S: 0.002 µM, Q: 0.007 µM, T: 0.019 µM, P: 0.037 µM)

A = COc1ccc(-c2c(-c3ccnc(N)c3)[nH]c3cccnc23)cn1
B = CC(=O)Nc1cc(-c2[nH]c3c(C)ccnc3c2-c2cccc(C(F)F)n2)ccn1
C = COc1ccc(-c2c(-c3ccnc(NC(C)=O)c3)[nH]c3c(C(=O)NC(CO)CO)cc(Cl)nc23)cn1
Sort the compounds on IC50; start with the lowest figure. Reply with the item labels sorted in the order that was asked for.
B, C, A
(B: 0.0013 µM, C: 0.017 µM, A: 0.041 µM)
